The reported measurements were obtained from paper PMC5402287.

Parameter: IC50. Scope: all listed entries.
Molecular target: recombinant active AMPK (A1/B1/G2) (Homo sapiens, UniProt Q13131+Q9Y478)
Construct: purchased SignalChem (Richmond, BC, Canada)
Sequence (Q13131 whole entry): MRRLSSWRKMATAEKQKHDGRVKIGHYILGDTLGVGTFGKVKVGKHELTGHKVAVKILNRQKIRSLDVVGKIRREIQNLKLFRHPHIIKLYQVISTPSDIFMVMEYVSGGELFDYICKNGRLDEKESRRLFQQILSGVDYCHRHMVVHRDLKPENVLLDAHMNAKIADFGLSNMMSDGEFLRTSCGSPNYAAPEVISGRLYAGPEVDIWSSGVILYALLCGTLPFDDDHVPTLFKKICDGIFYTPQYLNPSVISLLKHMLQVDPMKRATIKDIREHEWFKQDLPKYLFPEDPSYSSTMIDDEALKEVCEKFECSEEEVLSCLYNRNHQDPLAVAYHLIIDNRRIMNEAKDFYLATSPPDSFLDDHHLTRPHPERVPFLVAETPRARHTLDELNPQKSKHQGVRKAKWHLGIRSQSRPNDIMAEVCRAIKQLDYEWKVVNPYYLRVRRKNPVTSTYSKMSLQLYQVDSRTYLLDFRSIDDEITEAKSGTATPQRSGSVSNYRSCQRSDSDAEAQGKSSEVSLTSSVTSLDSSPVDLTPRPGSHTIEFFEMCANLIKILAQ
Sequence (Q9Y478 whole entry): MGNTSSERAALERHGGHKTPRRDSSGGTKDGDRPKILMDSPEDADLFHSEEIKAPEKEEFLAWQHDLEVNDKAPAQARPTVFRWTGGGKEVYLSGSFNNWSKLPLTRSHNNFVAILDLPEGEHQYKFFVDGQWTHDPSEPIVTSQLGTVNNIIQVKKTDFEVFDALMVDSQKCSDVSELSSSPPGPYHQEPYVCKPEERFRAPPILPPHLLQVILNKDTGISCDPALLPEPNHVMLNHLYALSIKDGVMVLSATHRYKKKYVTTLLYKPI
Sequence (Q9UGJ0 whole entry partner): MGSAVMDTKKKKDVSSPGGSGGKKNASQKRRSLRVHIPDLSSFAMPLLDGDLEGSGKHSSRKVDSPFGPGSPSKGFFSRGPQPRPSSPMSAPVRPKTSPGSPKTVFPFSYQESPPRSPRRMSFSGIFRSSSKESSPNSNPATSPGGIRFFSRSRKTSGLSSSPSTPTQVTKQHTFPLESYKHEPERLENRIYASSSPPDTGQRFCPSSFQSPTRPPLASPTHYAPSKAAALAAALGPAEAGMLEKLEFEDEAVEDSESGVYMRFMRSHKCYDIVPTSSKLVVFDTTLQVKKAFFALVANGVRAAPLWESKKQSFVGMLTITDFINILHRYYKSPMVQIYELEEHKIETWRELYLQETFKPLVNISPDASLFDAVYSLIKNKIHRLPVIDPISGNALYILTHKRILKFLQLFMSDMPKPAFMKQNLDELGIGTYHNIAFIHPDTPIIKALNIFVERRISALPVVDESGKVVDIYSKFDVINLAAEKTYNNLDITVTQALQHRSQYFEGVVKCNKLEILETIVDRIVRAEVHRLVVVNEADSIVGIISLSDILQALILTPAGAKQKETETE
Assay: in vitro AMPK kinase assay coupled with ADP-Glo assay
Assay type: biochemical
Details: Activators; ADP-Glo, 10 ng AMPK, 50 μM ATP, 50 μM SAMS peptide, 60 min
# output: bare number, implied unit nM

Take a look at these entries with their results.
- compound: "N#Cc1c(O)c2c(-c3ccc(-c4ccccc4O)cc3)csc2[nH]c1=O"
  measurement.unit: "nM"
  IC50: 215
- compound: "O=C(O)c1ccccc1O [Salicylate]"
  measurement.unit: "nM"
  IC50: 53000

Problem: Form entry - test system: recombinant active AMPK (A1/B1/G2) (Homo sapiens, UniProt Q13131+Q9Y478); read-out: IC50; compound: `NC(=O)c1ncn([C@@H]2O[C@H](COP(=O)(O)O)[C@@H](O)[C@H]2O)c1N`
Solution: 1900
